# EXPERIMENT_SUMMARY: in vitro
# Format: in vitro ADME
# SETTINGS: human, serum, 37° C., HSO4^- salt
MEASUREMENT_TYPE: half-life (h)
Number in h, nothing else.

## Input Recorded half-life for `C[n+]1ccccc1C(=O)O[C@H]1CC[C@H]2[C@@H]3CCC4=CC(=O)CC[C@]4(C)[C@H]3CC[C@]12C` , please?
## Output 1.08

====

# reported Degradation; entries follow
# EXPERIMENT_SUMMARY: Degradation (%/d)
Number in %/d, nothing else.

- C[C@]12CC[C@H]3[C@@H](CCC4=CC(=O)CC[C@@]43C)[C@@H]1CC[C@@H]2O [Code 1.0, 17β-hydroxyandrost-4-en-3-one, reference compound]: 0
- CCOC(=O)C[C@H](C[N+](C)(C)C)OC(=O)O[C@H]1CC[C@H]2[C@@H]3CCC4=CC(=O)CC[C@]4(C)[C@H]3CC[C@]12C [Code 1.7]: 0
- C[C@]12CC[C@H]3[C@@H](CCC4=CC(=O)CC[C@@]43C)[C@@H]1CC[C@@H]2OC(=O)CCCC[N+](C)(C)C [Code 2.4]: 0
- C[C@]12CC[C@H]3[C@@H](CCC4=CC(=O)CC[C@@]43C)[C@@H]1CC[C@@H]2OC(=O)C=CC[N+](C)(C)C [Code 3.8]: 0

## Input Recorded Degradation for C[C@]12CC[C@H]3[C@@H](CCC4=CC(=O)CC[C@@]43C)[C@@H]1CC[C@@H]2OC(=O)CC[N+](C)(C)C [Code 2.5] , please?
## Output 0

## Input What do you have for C[C@]12CC[C@H]3[C@@H](CCC4=CC(=O)CC[C@@]43C)[C@@H]1CC[C@@H]2OC(=O)OCOC(=O)CCCCC[N+](C)(C)C [Code 3.2] ?
## Output 77

====

# reported CC50 at 16 h; entries follow
# EXPERIMENT_SUMMARY: in vitro
# Format: cell-based, human
# SETTINGS: human, dermal fibroblasts, IC50 16 h (cytotoxicity), 16 h incubation, MTT
Number in µM, nothing else.

* C[C@]12CC[C@H]3[C@@H](CCC4=CC(=O)CC[C@@]43C)[C@@H]1CC[C@@H]2O [Code 1.0, 17β-hydroxyandrost-4-en-3-one, reference compound] | 423
* C[C@]12CC[C@H]3[C@@H](CCC4=CC(=O)CC[C@@]43C)[C@@H]1CC[C@@H]2OC(=O)CC[N+](C)(C)C | 329

Now examine the next entry.
## Input Recorded CC50 at 16 h for CC(=O)OC(CC(=O)O[C@H]1CC[C@H]2[C@@H]3CCC4=CC(=O)CC[C@]4(C)[C@H]3CC[C@]12C)C[N+](C)(C)C (stereo partly drawn) , please?
## Output 34.4

====

# reported half-life; entries follow
# EXPERIMENT_SUMMARY: in vitro
# Type: in vitro ADME
# SETTINGS: human, serum, 37° C., footnote 1: prodrug remaining, no testosterone formed

- C[C@]12CC[C@H]3[C@@H](CCC4=CC(=O)CC[C@@]43C)[C@@H]1CC[C@@H]2OC(=O)CCC[N+](C)(C)C [Code 2.3]: ~900 min

## Input Recorded half-life for C[C@]12CC[C@H]3[C@@H](CC=C4C=C(OC(=O)CC[N+](C)(C)C)CC[C@@]43C)[C@@H]1CC[C@@H]2OC(=O)OCC[N+](C)(C)C [Code 4.4] , please?
## Output 2.3 min

## Input What do you have for C[C@]12CC[C@H]3[C@@H](CCC4=CC(=O)CC[C@@]43C)[C@@H]1CC[C@@H]2OC(=O)CC[N+](C)(C)C [Code 2.5] ?
## Output ~10 min

====

# EXPERIMENT_SUMMARY: in vitro
# Assay type: in vitro ADME
# SETTINGS: human, serum, 37° C., iodide (I--) salt
MEASUREMENT_TYPE: half-life
Field note: include the unit after the figure.

## Input Recorded half-life for C[n+]1ccccc1C(=O)O[C@H]1CC[C@H]2[C@@H]3CCC4=CC(=O)CC[C@]4(C)[C@H]3CC[C@]12C [Code 4.0] , please?
## Output 1.17 h

====

# EXPERIMENT_SUMMARY: in vitro
# Assay type: in vitro ADME
# SETTINGS: human, serum, 37° C., HPLC
# reported half-life; entries follow
Number in h, nothing else.

- COC(=O)[C@H](COC(=O)O[C@H]1CC[C@H]2[C@@H]3CCC4=CC(=O)CC[C@]4(C)[C@H]3CC[C@]12C)N(C)C: 0.783
- CN(C)CCc1ccc(OC(=O)O[C@H]2CC[C@H]3[C@@H]4CCC5=CC(=O)CC[C@]5(C)[C@H]4CC[C@]23C)cc1 [Code 3.3, testosterone-17β-hordenine carbonate]: 8.2
- C[C@]12CC[C@H]3[C@@H](CCC4=CC(=O)CC[C@@]43C)[C@@H]1CC[C@@H]2OC(=O)OCOC(=O)CNC(=O)OCOC(=O)CCCCC[N+](C)(C)C: 0.0667

## Input Recorded half-life for `C[C@]12CC[C@H]3[C@@H](CCC4=CC(=O)CC[C@@]43C)[C@@H]1CC[C@@H]2OC(=O)OCC[N+](C)(C)C` , please?
## Output 0.4

## Input What do you have for `C[C@]12CC[C@H]3[C@@H](CCC4=CC(=O)CC[C@@]43C)[C@@H]1CC[C@@H]2OC(=O)CCC(=O)NCCS(=O)(=O)O` ?
## Output 24

====

# Type: in vitro ADME, mouse
# SETTINGS: hairless mouse skin, vs unmodified testosterone; 'nearly 10-fold enhancement or greater'
MEASUREMENT_TYPE: Enhancement in in vitro electrotransport skin flux compared to testosterone

Check out these entries, answers already filled in.
- C[C@]12CC[C@H]3[C@@H](CCC4=CC(=O)CC[C@@]43C)[C@@H]1CC[C@@H]2OC(=O)C=CC[N+](C)(C)C: ≥ 10 fold
- C[C@]12CC[C@H]3[C@@H](CCC4=CC(=O)CC[C@@]43C)[C@@H]1CC[C@@H]2OC(=O)OCC[N+](C)(C)C: ≥ 10 fold
- CCOC(=O)C[C@H](C[N+](C)(C)C)OC(=O)O[C@H]1CC[C@H]2[C@@H]3CCC4=CC(=O)CC[C@]4(C)[C@H]3CC[C@]12C: ≥ 10 fold

Now examine the next entry.
## Input Recorded Enhancement in in vitro electrotransport skin flux compared to testosterone for `C[C@]12CC[C@H]3[C@@H](CCC4=CC(=O)CC[C@@]43C)[C@@H]1CC[C@@H]2OC(=O)CC[N+](C)(C)C` , please?
## Output ≥ 10 fold

====

# EXPERIMENT_SUMMARY: in vitro
# Assay type: cell-based, human
# SETTINGS: human, dermal fibroblasts, IC50 2 h (cytotoxicity), 2 h incubation, MTT
# Source text: As discussed above, the chemical modifier, when present in the subject in its free or released form, and in appropriately administered amounts, should preferably be non-toxic. Additionally, any further in vivo degradation products of the chemical modifier should be non-toxic, as well. Table 2 provides in vitro relative cytotoxicity data for a number of testosterone/chemical modifier complexes, prepared in accordance with the invention. […]
Counter-ions that a name gives are not always drawn.
# reported CC50 at 2 h; entries follow
Number in µM, nothing else.

Check out these entries, answers already filled in.
• CN(C)CCCC(=O)O[C@H]1CC[C@H]2[C@@H]3CCC4=CC(=O)CC[C@]4(C)[C@H]3CC[C@]12C [Code 3.1, hydrochloride salt] = 255
• CC(=O)O[C@@H]1C[C@@H](C(=O)O[C@H]2CC[C@H]3[C@@H]4CCC5=CC(=O)CC[C@]5(C)[C@H]4CC[C@]23C)[N+](C)(C)C1 = 733

Now examine the next entry.
## Input Recorded CC50 at 2 h for `C[n+]1cccc(C(=O)O[C@H]2CC[C@H]3[C@@H]4CCC5=CC(=O)CC[C@]5(C)[C@H]4CC[C@]23C)c1` , please?
## Output 598

====

# EXPERIMENT_SUMMARY: in vitro
# Type: in vitro ADME
# SETTINGS: human, serum, 37° C., HPLC
Counter-ions that a name gives are not always drawn.
Respond with Criterion met for half-life values of 10 h and above, Criterion not met for values below.

Examples from the recorded data:
• CC(=O)O[C@@H]1C[C@@H](C(=O)O[C@H]2CC[C@H]3[C@@H]4CCC5=CC(=O)CC[C@]5(C)[C@H]4CC[C@]23C)[N+](C)(C)C1 [Code 2.6] = Criterion not met
• C[C@]12CC[C@H]3[C@@H](CCC4=CC(=O)CC[C@@]43C)[C@@H]1CC[C@@H]2OC(=O)OCOC(=O)CC[N+](C)(C)C [Code 2.1] = Criterion not met
• C[C@]12CC[C@H]3[C@@H](CCC4=CC(=O)CC[C@@]43C)[C@@H]1CC[C@@H]2OC(=O)C=CC[N+](C)(C)C [Code 3.8] = Criterion met

## Input Form field: half-life at least 10 h? Entry: C[C@]12CC[C@H]3[C@@H](CCC4=CC(=O)CC[C@@]43C)[C@@H]1CC[C@@H]2OC(=O)C[N+](C)(C)C [Code 2.2]
## Output Criterion met

## Input What do you have for C[n+]1cccc(C(=O)O[C@H]2CC[C@H]3[C@@H]4CCC5=CC(=O)CC[C@]5(C)[C@H]4CC[C@]23C)c1 [Code 2.8] ?
## Output Criterion met

## Input What do you have for C[C@]12CC[C@H]3[C@@H](CCC4=CC(=O)CC[C@@]43C)[C@@H]1CC[C@@H]2OC(=O)c1ccccn1 [Code 3.9, hydrochloride salt] ?
## Output Criterion met

Cited source for all entries: patent US5622944A
